Sourced from paper PMC7933930

biological target: Serotonin 5HT2C (Homo sapiens); experiment: Off‐target panel: Serotonin 5HT2C (DRX); type: cell-based
Sequence (P28335 33-458): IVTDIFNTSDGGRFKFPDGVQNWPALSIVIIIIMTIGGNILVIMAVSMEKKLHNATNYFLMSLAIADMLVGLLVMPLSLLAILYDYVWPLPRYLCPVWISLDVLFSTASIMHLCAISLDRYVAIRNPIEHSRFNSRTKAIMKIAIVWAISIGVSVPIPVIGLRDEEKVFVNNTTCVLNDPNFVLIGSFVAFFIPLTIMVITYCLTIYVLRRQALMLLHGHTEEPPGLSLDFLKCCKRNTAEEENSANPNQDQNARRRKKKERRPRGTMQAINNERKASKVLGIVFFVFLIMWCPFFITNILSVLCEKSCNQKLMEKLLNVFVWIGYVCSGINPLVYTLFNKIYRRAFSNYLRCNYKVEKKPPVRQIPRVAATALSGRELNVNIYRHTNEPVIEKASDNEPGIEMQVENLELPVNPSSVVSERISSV
Property measured: pIC50
Numbers only, as −log10 of the molar value.

Q) Return value of pIC50 for input CCC[C@@H](NC(=O)c1cccc2c1CC(=O)N2)[C@@H](O)c1cccc(F)c1C , no commentary.
A) 4.30

----------
assay: Total and unbound drug concentrations in blood and liver of Z α1‐antitrypsin transgenic mice; type: in vivo; details: female, Z α1-antitrypsin transgenic (hemizygous), mouse, whole blood, oral, 30 mg/kg, 30 mg/kg three times a day, time 128 h; read-out: UNBOUND mean concentration ± SD, Blood
Property measured: concentration at 128 h (nM)
One number for each entry, in nM.

Q) Return value of concentration at 128 h for input CCC[C@@H](NC(=O)c1cccc2c1CC(=O)N2)[C@@H](O)c1cccc(F)c1C , no commentary.
A) 51
